Please respond with reported Drug uptake for every item in the list.
# Measurement protocol: Cellular uptake in human MDM assessed as compound retention at 3 to 20 uM incubated for 3 hrs followed by drug washout measured after 3 hrs by LC-MS/MS analysis relative to initial drug accumulation
# Format: ADME

Recorded results for 2 compounds are shown here.
Compound: CC[C@H]1OC(=O)[C@H](C)[C@@H](O)[C@H](C)[C@@H](O)[C@](C)(O)C[C@@H](C)CN(C)[C@H](C)[C@@H](O)[C@]1(C)O
Drug uptake: 3%
//
Compound: CCCCCCCC(=O)NCCCN1C[C@H](C)C[C@@](C)(O)[C@H](O[C@@H]2O[C@H](C)C[C@H](N(C)C)[C@H]2O)[C@@H](C)[C@H](O[C@H]2C[C@@](C)(OC)[C@@H](O)[C@H](C)O2)[C@@H](C)C(=O)O[C@H](CC)[C@@](C)(O)[C@H](O)[C@H]1C
Drug uptake: 83%

Quick request: Drug uptake for each listed item, please.
1. CC[C@H]1OC(=O)[C@H](C)[C@@H](O[C@H]2C[C@@](C)(OC)[C@@H](OC(=O)CN(CC)CC)[C@H](C)O2)[C@H](C)[C@@H](O[C@@H]2O[C@H](C)C[C@H](N(C)C)[C@H]2O)[C@](C)(OC)C[C@@H](C)C(=O)N[C@H](C)[C@@H](O)[C@]1(C)O
2. CC[C@H]1OC(=O)[C@H](C)[C@@H](O[C@H]2C[C@@](C)(OC)[C@@H](O)[C@H](C)O2)[C@H](C)[C@@H](O[C@@H]2O[C@H](C)C[C@H](N(C)C)[C@H]2O)[C@](C)(O)C[C@@H](C)CN(C)[C@H](C)[C@@H](O)[C@]1(C)O

56%
93%

meta.source: ChEMBL document CHEMBL2177068
